Cited source for all entries: PubChem BioAssay (NCATS)

# Test: Cell Viability - LYMP2-025 (AID 976);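 further: cells exposed to compound for 24 h at 37 °C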
# Experimental Setup: LYMP2-025 lymphoblastoid cell viability; series mostly up to 92.2 µM
Records with an inconclusive call do not appear. The source made the active and inactive calls. The call rests on the fitted dose curve; in most records, active means well fitted cell-killing curve with a large enough effect; inconclusive means small, poorly fitted or top-dose-only effect; inactive means flat fitted curve, though single readings scatter.
Respond with a class label; see active, inactive

Query: Recorded test outcome, item O=[N+]([O-])C(Br)Br
Response: active

Query: Recorded test outcome, item c1ccc2cc3c(cc2c1)-c1cccc2cccc-3c12
Response: inactive

Query: Recorded test outcome, item ClC1=C(Cl)C2(Cl)C3C(Cl)C(Cl)CC3C1(Cl)C2(Cl)Cl (stereo not given)
Response: inactive

Query: Recorded test outcome, item O=Nc1ccc(Nc2ccccc2)cc1
Response: active

Query: Recorded test outcome, item ClC1=C(Cl)C(Cl)(Cl)C(Cl)=C1Cl
Response: active

----------
# Test system: CP250
# Test: qHTS profiling for inhibitors of Plasmodium falciparum proliferation (AID 504749); further: nearly all actives have a fitted effect of over 60% in size
# Experimental Setup: P. falciparum in erythrocytes, SYBR Green DNA, 72 h; series mostly up to 28.7 µM
Inconclusive results are not listed. Calls of active or inactive are those of the source. Calls come from the whole dose curve; as a rule, active = well fitted inhibition curve with a large enough effect; inconclusive = small, poorly fitted or top-dose-only effect; inactive = flat fitted curve, though single readings scatter.
Respond with a class label; see 1 (active), -1 (inactive)

Query: Recorded test outcome, item CC(Cc1ccccc1)N(C)C (stereo unspecified)
Response: -1

Query: Recorded test outcome, item C[C@@H](N)[C@@H](O)c1ccc(O)c(O)c1
Response: -1

Query: Recorded test outcome, item O=[N+]([O-])OC1CO[C@H]2C(O[N+](=O)[O-])COC12 (stereo partly specified)
Response: -1

Query: Recorded test outcome, item CCCCCc1cc(O)c2c(c1)OC(C)(C)C1CC=C(C)CC21 (stereo unspecified)
Response: 1

Query: Recorded test outcome, item C#C[C@]1(O)CC[C@H]2[C@@H]3CCC4=CC(=O)CCC4(C)[C@H]3CCC21C (stereo partly specified)
Response: -1

Query: Recorded test outcome, item CCCCCCC(=O)O[C@H]1CC[C@H]2[C@@H]3CCC4CC(=O)C=C(C)[C@]4(C)[C@H]3CC[C@]12C (stereo partly specified)
Response: -1

Query: Recorded test outcome, item CN1C2CCC1C(C(=O)O)C(OC(=O)c1ccccc1)C2 (stereo unspecified)
Response: -1

Query: Recorded test outcome, item Nc1nc(O)c(-c2ccccc2)o1
Response: -1

Query: Recorded test outcome, item CN(C)C1C(=O)C(C(N)=O)C(=O)C2(O)C(=O)C3C(=O)c4c(O)cccc4C(C)(O)C3C(O)C12 (stereo unspecified)
Response: -1

Query: Recorded test outcome, item COC(=O)C1C(OC(=O)c2ccccc2)CC2CCC1N2C (stereo unspecified)
Response: -1

Query: Recorded test outcome, item CC(=O)[C@H]1CC[C@H]2C3CC[C@H]4C[C@H](O)CC[C@]4(C)C3CC[C@]12C (stereo partly specified)
Response: -1

Query: Recorded test outcome, item CC1(C)S[C@@H]2[C@H](N)C(=O)N2C1C(=O)O (stereo partly specified)
Response: -1

Query: Recorded test outcome, item CC1CC[C@@]2(NC1)OC1CC3C4CC[C@@H]5CC(O)CC[C@@]5(C)C4CC[C@]3(C)C1C2C (stereo partly specified)
Response: -1

Query: Recorded test outcome, item Cc1cc(C)cc(C(=O)OC2CC3CCC(C2)N3C)c1 (stereo unspecified)
Response: -1

Query: Recorded test outcome, item C=C1CC2C(CC[C@]3(C)C(=O)CCC23)[C@]2(C)C=CC(=O)C=C12 (stereo partly specified)
Response: -1

Query: Recorded test outcome, item C[C@]12CCC3C(CCC4=C(Cl)C(=O)CC[C@@]43C)C1CCC2O (stereo partly specified)
Response: -1

Query: Recorded test outcome, item OCC(O)[C@H]1O[C@@H]2O[C@H](C(Cl)(Cl)Cl)O[C@@H]2[C@H]1O (stereo partly specified)
Response: -1

Query: Recorded test outcome, item OC[C@@H](O)[C@H]1O[C@@H]2OC(C(Cl)(Cl)Cl)O[C@H]2[C@H]1O (stereo partly specified)
Response: -1

Query: Recorded test outcome, item C=CC[C@]1(O)CCC2C3CCC4=CCCCC4C3CCC21C (stereo partly specified)
Response: -1

Query: Recorded test outcome, item C=CC[N+]1(C)CCC23c4c5ccc(O)c4O[C@H]2C(=O)CC[C@@]3(O)C1C5 (stereo partly specified)
Response: -1

Query: Recorded test outcome, item CCCC(C)C1(CC)C(=O)NC(=S)NC1=O (stereo unspecified)
Response: -1

Query: Recorded test outcome, item C[C@]12C=CC(=O)C=C1CC[C@@H]1C2CC[C@]2(C)OC(=O)CCC12 (stereo partly specified)
Response: -1

Query: Recorded test outcome, item CCCN1CCCC2Cc3nc(N)ncc3CC21 (stereo unspecified)
Response: -1

Query: Recorded test outcome, item O=C1CC2OCC=C3CN4CCC56c7ccccc7N1C5[C@H]2[C@H]3C[C@H]46 (stereo partly specified) (tested in a mixture with another compound)
Response: -1

Query: Recorded test outcome, item COc1ccc2c3c1O[C@H]1[C@@H](O)C=C[C@H]4C(C2)NCCC341 (stereo partly specified)
Response: -1

Query: Recorded test outcome, item CC(=O)O[C@H]1C[C@H](O[C@H]2[C@@H](O)CC(O[C@H]3[C@@H](O)C[C@H](O[C@H]4CC[C@@]5(C)[C@H](CC[C@@H]6[C@@H]5CC[C@]5(C)[C@@H](C7=CC(=O)OC7)CC[C@]65O)C4)O[C@@H]3C)O[C@@H]2C)O[C@H](C)[C@H]1O[C@@H]1O[C@H](CO)[C@@H](O)[C@H](O)[C@H]1O (stereo partly specified)
Response: -1

----------
# Target Entity: Thyroid hormone receptor beta (Homo sapiens) (UniProt P10828)
# Sequence (P10828 whole entry, looked up): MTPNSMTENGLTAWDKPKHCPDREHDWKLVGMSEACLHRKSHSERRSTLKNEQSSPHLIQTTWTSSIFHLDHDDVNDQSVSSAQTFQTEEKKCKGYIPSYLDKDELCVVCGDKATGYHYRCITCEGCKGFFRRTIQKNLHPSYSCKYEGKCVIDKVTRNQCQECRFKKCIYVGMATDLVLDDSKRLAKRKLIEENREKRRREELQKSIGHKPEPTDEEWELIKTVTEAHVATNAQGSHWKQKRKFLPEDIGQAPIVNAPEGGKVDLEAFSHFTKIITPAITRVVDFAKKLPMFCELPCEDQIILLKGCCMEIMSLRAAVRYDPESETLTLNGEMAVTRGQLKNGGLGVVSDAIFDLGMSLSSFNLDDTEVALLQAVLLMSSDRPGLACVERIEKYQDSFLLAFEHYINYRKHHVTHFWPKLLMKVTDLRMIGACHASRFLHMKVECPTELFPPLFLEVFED
# Test: qHTS assay for small molecule antagonists of thyroid hormone receptor beta signaling (AID 588547);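 further: cells stimulated with 0.4 nM T3 agonist during compound exposure; on the % scale 0 is the no-effect control and ±100 the full control effect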
# Experimental Setup: TR-UAS-bla HEK293, beta-lactamase ratio, antagonist mode, 18 h
Results filed as inconclusive are left out.
Outcome Measure: activity change % (negative = inhibition) (%)
Use % as the unit, but write only the number.

The compound CCCN(CCOc1c(Cl)cc(Cl)cc1Cl)C(=O)n1ccnc1 showed activity change % (negative = inhibition) equal to 22.9

The compound CC1(C)CC/C(=C\c2ccc(Cl)cc2)C1(O)Cn1cncn1 (stereo not drawn) showed activity change % (negative = inhibition) equal to -0.512

The compound CCCCCCCCCCCC#N showed activity change % (negative = inhibition) equal to 16.2

The compound C#CC(C)(C)NC(=O)c1cc(Cl)cc(Cl)c1 showed activity change % (negative = inhibition) equal to 3.53

The compound COP(=O)(OC)OC(Br)C(Cl)(Cl)Br (stereo not drawn) showed activity change % (negative = inhibition) equal to -62.2

The compound CCNC(=O)NC(=O)/C(C#N)=N/OC showed activity change % (negative = inhibition) equal to 5.55

The compound CC(C)(C)C(O)C(Oc1ccc(-c2ccccc2)cc1)n1cncn1 (stereo not drawn) showed activity change % (negative = inhibition) equal to -13.8

The compound CC1=C(C(=O)Nc2ccccc2)SCCO1 showed activity change % (negative = inhibition) equal to 3.71

The compound O=[N+]([O-])c1ccc(Oc2ccc(C(F)(F)F)cc2[N+](=O)[O-])cc1 showed activity change % (negative = inhibition) equal to 5.9

The compound O=C(Nc1ccccc1)Nc1ccnc(Cl)c1 showed activity change % (negative = inhibition) equal to 16

The compound C=CC(=O)NCO showed activity change % (negative = inhibition) equal to 0.0569

The compound CCCCCCCCCCCCN(C)C showed activity change % (negative = inhibition) equal to -6.18

The compound CS/C(C)=N/OC(=O)N(C)SN(C)C(=O)O/N=C(\C)SC showed activity change % (negative = inhibition) equal to -7.26

----------
# Tested on: DIV17
# Test: qHTS profiling for inhibitors of Plasmodium falciparum proliferation (AID 504749); further: nearly all actives have a fitted effect of over 60% in size
# Experimental Setup: P. falciparum in erythrocytes, SYBR Green DNA, 72 h; series mostly up to 28.7 µM
Results filed as inconclusive are left out. Activity calls are given as the source filed them. Calls come from the whole dose curve; as a rule, active = well fitted inhibition curve with a large enough effect; inconclusive = small, poorly fitted or top-dose-only effect; inactive = flat fitted curve, though single readings scatter.
Respond with a class label; see t for active, f for inactive

Query: Recorded test outcome, item O=C1CC2OCC=C3CN4CC[C@]56c7ccccc7N1C5C2[C@H]3C[C@H]46 (stereo not given in full)
Response: f

Query: Recorded test outcome, item CC1(C)[C@@H](C=C(Cl)Cl)[C@@H]1C(=O)OCc1c(F)c(F)cc(F)c1F
Response: f

Query: Recorded test outcome, item C[C@@H](N)[C@@H](O)c1ccc(O)c(O)c1
Response: f

Query: Recorded test outcome, item CCN(CC)C(=O)N[C@@H]1C=C2c3cccc4[nH]cc(c34)C[C@H]2N(C)C1
Response: t

Query: Recorded test outcome, item C#CC1(O)C=CC2C3CCC4=CC(=O)CCC4C3CCC21CC (stereo not given)
Response: t

Query: Recorded test outcome, item CC(C)CCC(=O)OC1CCC2C3CCC4=CC(=O)CC[C@]4(C)C3CC[C@]12C (stereo not given in full)
Response: f

Query: Recorded test outcome, item CCCCCC(O)C1C(=O)OC(C)C(O)\C=C/C=C\C=C/C=C\C=C(\C)C(O)C(O)C(O)CC(O)CC(O)CC(O)CC(O)CC1O (stereo not given)
Response: f

Query: Recorded test outcome, item COC(=O)C1C(OC(=O)c2ccccc2)CC2CCC1N2C (stereo not given)
Response: f

Query: Recorded test outcome, item CC(Cc1ccccc1)N(C)C (stereo not given)
Response: f

Query: Recorded test outcome, item CC(=O)[C@H]1CC[C@H]2C3CC[C@H]4C[C@H](O)CC[C@]4(C)C3CC[C@]12C (stereo not given in full)
Response: f
